The measured values listed here are drawn from paper PMC11605304.

Measured IC50 of individual entries
# System: MCF-7 cells
# protocol.details: MTT cytotoxicity, 72 h, MCF-7 breast cancer cells
# Format: cell-based, human
# condition: read-out: IC50 (μM) ± S.D., MCF-7, MTT test
# value in µM; strip the unit string

| compound | display.unit | IC50 |
| --- | --- | --- |
| C1N2CN3CN1CP(C2)C3.Cc1cc(C)n(C(C(=O)OC(C)C)n2nc(C)cc2C)n1.F[P-](F)(F)(F)(F)F.[Cu+] [compound 4, [Cu(L^2OiPr)(PTA)]PF6] | µM | 14 |

Shifting focus to the compound that follows.
Q: Reported IC50 for N.N.[Cl][Pt][Cl] [Cisplatin, cisplatin, reference compound] : what is it?
A: 13.9
